Field: inhibition at 2 µM. Provide a value for each of the molecules that follow.
- TEST_SYSTEM: SMO (Mus musculus)
- Construct: endogenous in cells; host or cells: C3H10T1/2 (ATCC #CCL-226)
- ASSAY_REMARKS: Smoothened (SMO)/Sonic Hedgehog (SHh) Transient Transcriptional Activation Assay (Gli-luciferase reporter in C3H10T1/2 cells)
- Format: cell-based, murine
- STATED_CONDITIONS: C3H 10T1/2, 2 uM test compound, SHh 250 ng/ml, 20 hrs, read-out: SMO % inhibition at 2 uM
Write it as a number; the unit % goes unstated.

Query string: Record Cn1c([C@H]2CCC[C@@H](NC(=O)c3ccc4c(c3)OCCO4)C2)nc2ccccc21 : what is its inhibition at 2 µM with SMO (Mus musculus)?
Result string: 107

Query string: Under SMO (Mus musculus): inhibition at 2 µM value of O=C(N[C@@H]1CCC[C@H](c2nc3ccccc3[nH]2)C1)c1ccc(Cl)nc1 ?
Result string: 103

Query string: Checklist item: inhibition at 2 µM tested on SMO (Mus musculus), entry COc1cc(OC)cc(C(=O)N[C@@H]2CCC[C@H](c3nc4ccc(C(F)(F)F)cc4[nH]3)C2)c1 , value?
Result string: 105

Query string: Recorded inhibition at 2 µM for COc1cc(OC)cc(C(=O)NC2CCCC(c3nc4ccc(C)cc4n3C)C2)c1 (centres unmarked) with SMO (Mus musculus), please?
Result string: 113

Query string: So what inhibition at 2 µM did N#CCCn1c(C2CCCC(NC(=O)c3ccc4c(c3)OCCO4)C2)nc2ccccc21 (centres unmarked) get with SMO (Mus musculus)?
Result string: 94

Query string: # query: inhibition at 2 µM | item COc1cc(OC)cc(C(=O)NC2CCCC(c3nc4cc(NC(=O)C(C)C)ccc4[nH]3)C2)c1 (centres unmarked) | system: SMO (Mus musculus)
Result string: 96

Query string: Find the measured inhibition at 2 µM: item CNC(=O)c1ccc2nc([C@H]3CCC[C@@H](NC(=O)c4cc(OC)cc(OC)c4)C3)[nH]c2c1 , target or system SMO (Mus musculus).
Result string: 70

Query string: Query the reported inhibition at 2 µM for SMO (Mus musculus); item: COCCn1c(C2CCCC(NC(=O)c3ccc4c(c3)OCCO4)C2)nc2ccccc21 (centres unmarked)
Result string: 59

====

For each record, write down the corresponding inhibition at 2 µM.
- TEST_SYSTEM: SMO (Mus musculus, UniProt P56726)
- Construct: endogenous in cells; host or cells: C3H10T1/2 (ATCC #CCL-226)
- Sequence (P56726 33-793): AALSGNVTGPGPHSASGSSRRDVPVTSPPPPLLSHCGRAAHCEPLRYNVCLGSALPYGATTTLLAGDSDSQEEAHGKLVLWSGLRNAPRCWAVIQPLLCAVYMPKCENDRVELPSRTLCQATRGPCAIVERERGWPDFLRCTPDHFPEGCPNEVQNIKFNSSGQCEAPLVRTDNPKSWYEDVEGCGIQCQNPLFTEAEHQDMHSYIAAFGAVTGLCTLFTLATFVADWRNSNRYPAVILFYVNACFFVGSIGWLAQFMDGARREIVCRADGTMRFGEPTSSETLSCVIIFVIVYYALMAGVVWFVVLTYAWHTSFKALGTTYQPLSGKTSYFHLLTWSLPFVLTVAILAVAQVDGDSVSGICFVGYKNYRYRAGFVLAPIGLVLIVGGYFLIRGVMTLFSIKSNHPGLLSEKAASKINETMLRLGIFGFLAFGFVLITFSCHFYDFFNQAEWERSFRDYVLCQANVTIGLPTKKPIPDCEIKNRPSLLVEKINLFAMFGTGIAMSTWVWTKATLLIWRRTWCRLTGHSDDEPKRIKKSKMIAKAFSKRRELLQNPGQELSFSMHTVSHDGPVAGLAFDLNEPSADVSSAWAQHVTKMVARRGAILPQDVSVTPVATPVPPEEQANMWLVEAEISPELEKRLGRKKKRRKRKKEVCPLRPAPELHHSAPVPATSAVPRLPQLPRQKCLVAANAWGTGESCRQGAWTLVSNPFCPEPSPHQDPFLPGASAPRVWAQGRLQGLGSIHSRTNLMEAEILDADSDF
- ASSAY_REMARKS: Smoothened (SMO)/Sonic Hedgehog (SHh) Transient Transcriptional Activation Assay (Gli-luciferase reporter in C3H10T1/2 cells)
- Type: cell-based, murine
- STATED_CONDITIONS: C3H 10T1/2, 2 uM test compound, SHh 250 ng/ml, 20 hrs, read-out: SMO % inhibition at 2 uM
- Method: As noted above, the compounds of the invention are useful as inhibitors of SMO. Methods for determining the in vitro activity of these compounds are described below: Smoothened (SMO)/Sonic Hedgehog (SHh) Transient Transcriptional Activation Assay […] Luciferase assays were conducted on Day 4 using Dual-Glo Luciferase assay system (Promega #E2940) according to Promega's protocol. […] Plates were shaken at room temperature for 10 minutes, and then read on TopCount (Perkin-Elmer). […]
Number in %, nothing else.

Query string: Which inhibition at 2 µM reading was recorded for the compound COCCNCc1ccc2nc([C@H]3CCC[C@@H](NC(=O)c4ccc5c(c4)OCCO5)C3)[nH]c2c1 ?
Result string: 99

Query string: Which inhibition at 2 µM is reported for this compound? COCCNc1cc(C(=O)N[C@@H]2CCC[C@H](c3nc4ccccc4[nH]3)C2)ccn1
Result string: 87

Query string: Which measured inhibition at 2 µM value corresponds to CN(C)c1ccc2nc(C3CCCC(NC(=O)c4ccc5c(c4)OCCO5)C3)[nH]c2c1 (centres unmarked) ?
Result string: 102

Query string: What value of measured inhibition at 2 µM is listed for O=C(Cc1nc2ccc(Cl)cc2[nH]1)NC1CCCC(c2nc3ccccc3[nH]2)C1 (centres unmarked) ?
Result string: 108

Query string: Endpoint output: inhibition at 2 µM of COc1cc(OC)cc(C(=O)NC2CCCC(c3nc4ccc(NS(=O)(=O)C(C)C)cc4[nH]3)C2)c1 (centres unmarked) . Value?
Result string: 62

Query string: Param item = COc1ccc2[nH]c(C3CCCC(NC(=O)c4ccc5c(c4)OCCO5)C3)nc2c1 (centres unmarked) ; retrieve measured inhibition at 2 µM.
Result string: 102

Query string: Given the entry COc1cc(OC)cc(C(=O)NC2CCCC(c3nc4ccccc4n3CCO)C2)c1 (racemic) , report its measured inhibition at 2 µM.
Result string: 98

Query string: I would be grateful if you could share the reported inhibition at 2 µM for O=C(NC1CCCC(c2nc3ccccc3[nH]2)C1)c1ccc2c(c1)OCCO2 (centres unmarked) .
Result string: 107

====

- TEST_SYSTEM: SMO (Mus musculus, UniProt P56726)
- Construct: endogenous in cells; host or cells: C3H10T1/2 (ATCC #CCL-226)
- ASSAY_REMARKS: Smoothened (SMO)/Sonic Hedgehog (SHh) Transient Transcriptional Activation Assay (Gli-luciferase reporter in C3H10T1/2 cells)
- Type: cell-based, murine
- STATED_CONDITIONS: C3H 10T1/2, 2 μM test compound, SHh 250 ng/ml, 20 hrs, read-out: SMO CELL % INHIBITION @ 2 μM
Counter-ions that a name gives are not always drawn.
Binary call on inhibition at 2 µM: condition met from 90% upward, condition not met beneath that.

Query string: Is inhibition at 2 µM for CC(C)(C)c1ccc2nc(C3CCCC(NC(=O)c4ccc5c(c4)OCCO5)C3)[nH]c2c1 (stereo not shown) [Example 78, HCl] at or above 90%?
Result string: condition met

Query string: Hi team, for Cn1ccnc1-c1ccc(C(=O)NC2CCCC(c3nc4ccccc4[nH]3)C2)cc1 (stereo not shown) [Example 159] , is the recorded inhibition at 2 µM at or above 90%?
Result string: condition not met

Query string: Can O=C(N[C@@H]1CCC[C@H](c2nc3ccccc3[nH]2)C1)c1ccc2c(n1)OCCO2 [Example 242] be said to have inhibition at 2 µM at or above 90%?
Result string: condition not met

Query string: State whether the measured inhibition at 2 µM reaches 90%, counting equality as reaching it, for O=C(NC12CCCC(c3nc4cc(C(F)(F)F)ccc4[nH]3)(C1)C2)c1c(F)c(F)c(F)c(F)c1F [Example 288]
Result string: condition met

Query string: Given the entry O=C(NC12CCCC(c3nc4cc(Cl)ccc4[nH]3)(C1)C2)c1ccc2c(c1)OCCO2 [Example 272] , answer whether its inhibition at 2 µM meets or surpasses 90%.
Result string: condition met

Query string: Dear colleague, could you confirm whether O=C(N[C@@H]1CCC[C@H](c2nc3ccccc3[nH]2)C1)c1ccc2nonc2c1 [Example 190] has inhibition at 2 µM at or above 90%?
Result string: condition not met

Query string: I'd appreciate it if you could say whether O=C(NC1CCCC(c2nc3ccccc3[nH]2)C1)c1cc(-c2ccccn2)n[nH]1 (stereo not shown) [Example 153] has inhibition at 2 µM at least equal to 90%.
Result string: condition not met

Query string: Could you tell me if the measured inhibition at 2 µM of COc1cc(OC)cc(C(=O)N[C@H]2CCC[C@H](c3nc4ccccc4[nH]3)C2)c1 [Example 252, HCl] reaches 90% or more?
Result string: condition not met

Query string: Record Cc1nn(C)c2sc(C(=O)N[C@@H]3CCC[C@H](c4nc5cc(C(F)(F)F)ccc5[nH]4)C3)cc12 [Example 284, HCl] ; criterion: inhibition at 2 µM no lower than 90%. Met?
Result string: condition met

Query string: Please indicate if the recorded inhibition at 2 µM for Cc1cccc(=O)n1CC(=O)N[C@@H]1CCC[C@H](c2nc3cc(C(F)(F)F)ccc3[nH]2)C1 [Example 282, HCl] meets or exceeds 90%.
Result string: condition not met

Query string: Could you please find out whether COCCn1c([C@H]2CCC[C@@H](NC(=O)c3ccc4c(c3)OCCO4)C2)nc2ccccc21 [Example 76] has inhibition at 2 µM that meets 90% or exceeds it?
Result string: condition met

Query string: hey, is inhibition at 2 µM for this one >= 90%? Cc1n[nH]c(C)c1/C=C/C(=O)NC1CCCC(c2nc3ccccc3[nH]2)C1 (stereo not shown) [Example 136]
Result string: condition not met

Query string: Say whether COc1cc(C(=O)NC2CCCC(c3nc4ccccc4[nH]3)C2)nc(OC)n1 (stereo not shown) [Example 119] shows inhibition at 2 µM of 90% or more.
Result string: condition not met

Query string: Textbook exercise: given the entry COc1cc(OC)cc(C(=O)NC23CCCC(c4nc5cc(C(F)(F)F)ccc5[nH]4)(C2)C3)c1 [Example 259] , state whether its inhibition at 2 µM is greater than or equal to 90%.
Result string: condition met

Query string: Quick check: does O=C(N[C@@H]1CCC[C@H](c2nc3cc(C(F)(F)F)ccc3[nH]2)C1)c1ccc2c(c1)CNCC2 [Example 303, HCl] have inhibition at 2 µM greater than or equal to 90%?
Result string: condition met

Query string: Exam item: decide whether the reported inhibition at 2 µM for Cc1cc(C)n2nc(C(=O)N[C@@H]3CCC[C@H](c4nc5ccccc5[nH]4)C3)cc2n1 [Example 194] is at least 90%.
Result string: condition not met
